The reported measurements were obtained from ChEMBL document CHEMBL4673338.

Measured hepatocyte CLint of individual entries
# PROTOCOL DESCRIPTION: Intrinsic clearance in human Hepatocyte assessed per million cells
# Type: ADME, tissue-based
# CONDITION INFO: hepatocytes, read-out: CLH
PARAMETER MEASURED: hepatocyte CLint (µL/min/1e6 cells)

O=C(Cc1cccc(OCCCC2CCNCC2)c1)Nc1nc(-c2c[nH]c3nccc(F)c23)cs1    5.7
CN1CCN(CCOc2cccc(CC(=O)Nc3nc(-c4c[nH]c5ncccc45)cs3)c2)CC1    3.3
CN1CCN(CCCOc2cccc(CC(=O)Nc3nc(-c4c[nH]c5ncccc45)cs3)c2)CC1    7.5
CS(=O)(=O)Nc1cccc(CC(=O)Nc2nc(-c3c[nH]c4ncc(F)cc34)cs2)c1    4.3
CS(=O)(=O)Nc1cccc(CC(=O)Nc2nc(-c3c[nH]c4ncccc34)cs2)c1    4
O=C(Cc1cccc(OCCCC2CCNCC2)c1)Nc1nc(-c2c[nH]c3ncc(F)cc23)cs1    6.3

###

# PROTOCOL DESCRIPTION: Cmax in rat at 3 mg/kg, po
# Assay type: ADME, organism-based
# Parameters: route oral, dose 3 mg/kg
# CONDITION INFO: in vivo
PARAMETER MEASURED: Cmax

CS(=O)(=O)Nc1cccc(CC(=O)Nc2nc(-c3c[nH]c4ncccc34)cs2)c1    900 ng/mL
CN1CCN(CCOc2cccc(CC(=O)Nc3nc(-c4c[nH]c5ncccc45)cs3)c2)CC1    60 ng/mL

###

# PROTOCOL DESCRIPTION: Volume of distribution at steady state in rat at 1 mg/kg, iv
# Type: ADME, organism-based
# CONDITION INFO: in vivo, read-out: Vdss
PARAMETER MEASURED: Vd (L/kg)

CN1CCN(CCOc2cccc(CC(=O)Nc3nc(-c4c[nH]c5ncccc45)cs3)c2)CC1    14
O=C(Cc1cccc(OCCCC2CCNCC2)c1)Nc1nc(-c2c[nH]c3nccc(F)c23)cs1    19
CN1CCN(CCCOc2cccc(CC(=O)Nc3nc(-c4c[nH]c5ncccc45)cs3)c2)CC1    10
CS(=O)(=O)Nc1cccc(CC(=O)Nc2nc(-c3c[nH]c4ncccc34)cs2)c1    0.6
O=C(Cc1cccc(OCCCC2CCNCC2)c1)Nc1nc(-c2c[nH]c3ncccc23)cs1    24
O=C(Cc1cccc(OCCCC2CCNCC2)c1)Nc1nc(-c2c[nH]c3ncc(F)cc23)cs1    8.7

###

Measured half-life of individual entries
# PROTOCOL DESCRIPTION: Half life in rat at 1 mg/kg, iv
# Format: ADME, organism-based
# CONDITION INFO: in vivo
PARAMETER MEASURED: half-life (h)

O=C(Cc1cccc(OCCCC2CCNCC2)c1)Nc1nc(-c2c[nH]c3nccc(F)c23)cs1    5.5
CN1CCN(CCOc2cccc(CC(=O)Nc3nc(-c4c[nH]c5ncccc45)cs3)c2)CC1    3.2
CS(=O)(=O)Nc1cccc(CC(=O)Nc2nc(-c3c[nH]c4ncccc34)cs2)c1    2
O=C(Cc1cccc(OCCCC2CCNCC2)c1)Nc1nc(-c2c[nH]c3ncccc23)cs1    5.4
CN1CCN(CCCOc2cccc(CC(=O)Nc3nc(-c4c[nH]c5ncccc45)cs3)c2)CC1    0.71
O=C(Cc1cccc(OCCCC2CCNCC2)c1)Nc1nc(-c2c[nH]c3ncc(F)cc23)cs1    3.8
